Experiment: KLF5 expression inhibitors, primary screen, DLD-1 cells, luminescence (AID 1700);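 further: higher means less KLF5 promoter-driven luciferase light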
Conditions: DLD-1 KLF5 promoter-luciferase reporter, at 5 µM, active compounds read high
About 670 (0.23%) of roughly 290,000 compounds were called active. The full list was thinned out, with actives kept by preference.
Assign Fulfilled to entries whose inhibition meets or exceeds -20%; assign Not fulfilled to the rest.

molecule	category
O=C1CCC(C(=O)N2CCN(c3ccccc3Cl)CC2)CN1CC1CCCCC1 (stereo not drawn)	Fulfilled
CCCCCNC(=O)C1c2ccccc2Oc2ccccc21	Not fulfilled
COc1ccc(NC(=O)CCNC(=O)Cn2cnc3sc4c(c3c2=O)CCCC4)cc1OC	Not fulfilled

Ask | inhibition >= -20% for `CC[C@]1(c2ccccc2OC)C(=O)N(C(=O)OC)N1C(=O)OC` ?
Reply | Fulfilled

Ask | inhibition >= -20% for CCC(=O)NC(Nc1nc2ccc(C)cc2s1)(C(=O)OC)C(F)(F)F (stereo not drawn) ?
Reply | Fulfilled

Ask | inhibition >= -20% for `O=S(=O)(c1cc(Cl)ccc1Cl)N1CCN(Cc2ccco2)CC1` ?
Reply | Fulfilled

Ask | inhibition >= -20% for `COc1ccc2[nH]cc(CCN3C(=O)c4ccc(C(=O)O)cc4C3=O)c2c1` ?
Reply | Not fulfilled

Ask | inhibition >= -20% for `O=C(Nc1nc2ccc([N+](=O)[O-])cc2s1)c1ccc(S(=O)(=O)N2CCCc3ccccc32)cc1` ?
Reply | Fulfilled

Ask | inhibition >= -20% for `CCCCCCCCn1c2c(c(=N)c3c1CCC3)CCCC2` ?
Reply | Fulfilled
